Target: Voltage-gated potassium channel subunit beta-2 (Rattus norvegicus)
Experiment: inhibitors of rat Kvbeta2 reductase activity – biochemical, NADPH fluorescence, primary screen (AID 622);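 note: slope of raw intensity against log time taken from 70 to 1610 s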
Conditions: recombinant KvBeta, 4-cyanobenzaldehyde reduction, at 10 µM
Active and inactive are the calls of the source.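 Rule for the calls: active = fluorescence slope higher than the sample average by over 3 SD (cut at about -0.22 in these data, passing the limit was not always enough); inactive = the rest.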
Response enum: active, inactive

Below, 5 compounds whose answers are already recorded.
> print(dat)
                                   compound  assigned.label
1   CON(C)c1nc(Oc2ccc(=O)[nH]n2)nc(N(C)C)n1        inactive
2  COc1ccc(CCN2C(=O)CCC2(C)C(=O)NCc2cccnc2)cc1OC (centres undefined)        inactive
3  Cc1cccn2c(=O)c3cc(C(=O)N4CCCc5ccccc54)n(C)c3nc12        inactive
4  CN(Cc1ccc(-n2cccn2)cc1)C(=O)c1cnn2c1NC(c1ccco1)CC2C(F)(F)F (centres undefined)        inactive
5  CSCC[C@@H](Nc1nc(-c2ccccc2)nc2c1oc1ccccc12)C(=O)O        inactive

In: Look up the recorded call for "Cc1c(C(=O)NCc2ccccn2)oc2ccccc12" in this test.
Out: inactive

In: Per the assay record, what outcome was assigned to "Cc1csc(NC(=O)Nc2cccc(Cl)c2)n1" ?
Out: inactive

In: # fetch the recorded call for "Cc1ccc(-c2nc3cc(N)ccc3o2)cc1" here
Out: active

In: Record lookup: outcome of this test for "CC(=O)Nc1nc(-c2ccccc2)nc(C)c1C(C)=O" ?
Out: inactive

---

Experiment: inhibitors of TNFa-induced NFkB p65 translocation, primary screen, imaging, HUVEC, MLSMR starter and 10KST1 sets (AID 438);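 note: compound added about 3h40 before a 20 min TNFalpha stimulation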
Settings: HUVEC TNFa-induced p65 nuclear translocation; measured here: nuclei count (cytotoxicity indicator), at 2.08 µM
Decide by cell count: equal to or exceeding 400 means True, less means False.

In: Check if cell count >= 400 (inclusive). Item: "O=C(NCCSCc1ccco1)Nc1cccc(Cl)c1"
Out: True

In: Does the compound "CCCC(=O)Nc1ccc(C(=O)O)cc1NC(=O)CCC" have recorded cell count that is 400 or more?
Out: True

In: Does the reported cell count for COc1cc(C2C(C(=O)c3ccc(C)o3)=C(O)C(=O)N2c2cc(C)on2)cc(Br)c1O (centres undefined) fall at or above the 400 mark?
Out: True

In: Does the reported cell count for CC(C(=O)Nc1ccccc1-c1ccccc1)N1CCN(C(=O)c2ccco2)CC1 (centres undefined) fall at or above the 400 mark?
Out: True

In: Determine whether measured cell count meets or exceeds 400 for CCOC(=O)C1=C(C)NC(=O)NC1c1ccc(Br)s1 (centres undefined)
Out: True

---

Molecular target: Voltage-gated potassium channel subunit beta-2 (Rattus norvegicus)
Experiment: inhibitors of rat Kvbeta2 reductase activity – biochemical, NADPH fluorescence, primary screen (AID 622);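 note: slope of raw intensity against log time taken from 70 to 1610 s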
Conditions: recombinant KvBeta, 4-cyanobenzaldehyde reduction, at 10 µM, stronger effect = higher value
fluorescence slope values for the compounds below.
Give the figure only, with no unit attached.

A selection of reference data follows.
> print(dat)
                                    compound                             tested.system       quantity.kind  measurement
 1     O=C(CSCc1cccc(F)c1)N1CCN(c2ccccc2)CC1  Voltage-gated potassium channel subunit beta-2 (Rattus norvegicus)  fluorescence slope       -0.398
 2  CCOc1ccc(NC(=O)CN2CCN(CC(=O)c3ccc(OCC)cc3)CC2)cc1  Voltage-gated potassium channel subunit beta-2 (Rattus norvegicus)  fluorescence slope       -0.397
 3  CCCNC(=O)c1cc(S(=O)(=O)N2CCc3ccccc32)ccc1F  Voltage-gated potassium channel subunit beta-2 (Rattus norvegicus)  fluorescence slope       -0.412
 4  CC(C)c1nc(N2CCN(C(=O)c3ccco3)CC2)c2c3c(sc2n1)CCCC3  Voltage-gated potassium channel subunit beta-2 (Rattus norvegicus)  fluorescence slope       -0.486
 5  Cc1cccc(NC(=O)CCCCCN2C(=O)c3ccccc3C2=O)n1  Voltage-gated potassium channel subunit beta-2 (Rattus norvegicus)  fluorescence slope        -0.44
 6  CC(=O)N1CCc2cc(S(=O)(=O)CCC(=O)N3CCN(c4ccccn4)CC3)ccc21  Voltage-gated potassium channel subunit beta-2 (Rattus norvegicus)  fluorescence slope       -0.456
 7          Cc1cc(NC(=O)COc2cccc3cccnc23)no1  Voltage-gated potassium channel subunit beta-2 (Rattus norvegicus)  fluorescence slope       -0.385
 8  COc1ccc(C)cc1S(=O)(=O)N1CCN(Cc2ccccc2)CC1  Voltage-gated potassium channel subunit beta-2 (Rattus norvegicus)  fluorescence slope       -0.558
 9  CC(C)(C)OC(=O)NC(CCNC=C1C(=O)OC(C)(C)OC1=O)C(=O)O (stereo not given)  Voltage-gated potassium channel subunit beta-2 (Rattus norvegicus)  fluorescence slope       -0.299
10  CCOC(=O)CCNC(=O)Nc1ccc2nc(C)n(Cc3ccccc3Cl)c(=O)c2c1  Voltage-gated potassium channel subunit beta-2 (Rattus norvegicus)  fluorescence slope       -0.366

Alright, here's another compound for you.
Form field fluorescence slope, entry c1cncc(C2Nc3ccccc3-c3nc4ccccc4n32)c1 (stereo not given) : -0.37

---

Assay: endothelial E-selectin expression blockers – imaging, HUVEC, immunofluorescence, MLSMR starter and 10KST1 sets, primary screen (AID 487);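 note: 100% = median nuclei count of all wells on the same plate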
Conditions: HUVEC TNFalpha-induced E-selectin immunofluorescence imaging, at 2 µM; measured here: cell number, toxicity
quantity kind: nuclei count (%)
Please reply with the bare figure in % and do not write the unit itself.

Guide cases for nuclei count, answers given:
> print(dat)
                                   compound  units.text  measurement
1  Cc1cc(C)c2cc3c(ccn3C3OC[C@H](O)[C@H](O)[C@H]3O)cc2n1 (stereo partly drawn)           %         95.9
2  CC(C(=O)c1ccccc1)n1cnc2ccccc2c1=O (stereo not drawn)           %         96.9

Turning now to a further record.
Just so you know, measured nuclei count for "O=C(NCc1cccnc1)c1ccc(Cl)c(Cl)c1" came out at 102

---

Recorded NADPH fluorescence slope values for a group of compounds are listed next.
Molecular target: Voltage-gated potassium channel subunit beta-2 (Rattus norvegicus) (UniProt P62483)
Sequence (P62483 whole entry, looked up): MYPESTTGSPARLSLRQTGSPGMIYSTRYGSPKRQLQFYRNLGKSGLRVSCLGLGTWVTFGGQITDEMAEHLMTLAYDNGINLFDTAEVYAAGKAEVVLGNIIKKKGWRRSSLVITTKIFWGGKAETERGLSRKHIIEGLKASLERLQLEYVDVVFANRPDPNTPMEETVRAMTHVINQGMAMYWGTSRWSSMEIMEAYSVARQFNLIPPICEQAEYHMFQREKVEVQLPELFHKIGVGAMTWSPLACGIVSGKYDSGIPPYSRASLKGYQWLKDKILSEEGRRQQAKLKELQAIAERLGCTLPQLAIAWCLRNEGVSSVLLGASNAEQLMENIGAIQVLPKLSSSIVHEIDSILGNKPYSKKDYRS
Test: enhancers of rat Kvbeta2 NADPH turnover – biochemical, NADPH fluorescence, primary screen (AID 623);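 note: fluorescence intensity change per second fitted from 20 to 320 s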
Conditions: Recombinant KvBeta, NADPH fluorescence decrease slope, 10 min; at 10 µM; stronger effect = lower value
Please state the value as a number alone, without comment.

Please review the entries below; each comes with its answer.
> print(dat)
                     compound             quantity.kind  measurement
1  CC(C)(C)c1ccc(OCC(=O)O)cc1  NADPH fluorescence slope     -3.9e-05
2  CC(=O)Nc1c(O)n(C)c2ccccc12  NADPH fluorescence slope      3.6e-05
3   COC(=O)/C=c1\sc2ncnn2c1=O  NADPH fluorescence slope     -1.3e-05

Considering "O=C(CSc1nnc(-c2cccnc2)o1)OC1CCCCC1" , its NADPH fluorescence slope with Voltage-gated potassium channel subunit beta-2 (Rattus norvegicus) (UniProt P62483) was recorded as 3.9e-05

The compound "COc1ccc(N=C2C(=O)Nc3ccccc32)cc1" on Voltage-gated potassium channel subunit beta-2 (Rattus norvegicus) (UniProt P62483): NADPH fluorescence slope was -1.5e-06

---

Assay: blockers of RIG-like receptor reporter activation – cell-based, Sendai virus stimulus, luciferase, 10K MLSCN set, TLR/RLR signaling modifier project, primary screen (AID 602276);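 note: firefly luciferase from ISG56 promoter only with Renilla not read in this screen; 0% = Sendai virus plus DMSO and 100% = medium plus DMSO without virus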
Settings: HEK293 RL24 IRF3 luciferase reporter, at 10 µM, stronger effect = higher value
quantity kind: inhibition (%)
A number alone suffices; assume %.

> print(dat)
                                   compound  quantity.kind  measurement
1     O=C(O)CCc1ccc(-c2ccc(F)cc2)n1CCC(=O)O     inhibition         15.3
2   CCCn1c(SCC(=O)NC(=O)NCc2ccco2)n[nH]c1=O     inhibition         2.79
3  CCOC(=O)N1CCN(C(=O)C2c3cc(OC)c(OC)cc3C(=O)N3CCc4ccccc4C23)CC1 (stereo not given)     inhibition         14.7
4  Cc1nnc(SCc2nnc(-c3ccccc3Br)o2)n1-c1ccccc1     inhibition         6.33
5   COc1ccccc1N(CC(=O)NC1CCCC1)C(=O)c1csnn1     inhibition        -0.44
6  CC(C(=O)Nc1ccccc1-c1ccccc1)N1CCN(C(=O)c2ccco2)CC1 (stereo not given)     inhibition         19.8

inhibition in this record for Cn1c(=O)[nH]c(=O)c2c1nc(N1CCOCC1)n2CC(O)COc1ccc2ccccc2c1 (stereo not given) : 15.8

compound "CCc1cc2ccc(C)cc2nc1SCC(=O)N1CCN(C(=O)c2ccco2)CC1" , inhibition observed: 11.9

---

Target: Voltage-gated potassium channel subunit beta-2 (Rattus norvegicus)
Test: inhibitors of rat Kvbeta2 reductase activity – biochemical, NADPH fluorescence, primary screen (AID 622);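 note: slope of raw intensity against log time taken from 70 to 1610 s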
Conditions: recombinant KvBeta, 4-cyanobenzaldehyde reduction, at 10 µM, stronger effect = higher value
Calls of active or inactive are those of the source.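 The calls were made as follows: active = fluorescence slope higher than the sample average by over 3 SD (cut at about -0.22 in these data, passing the limit was not always enough); inactive = the rest.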
quantity kind: fluorescence slope

> print(dat)
                                   compound       quantity.kind        measurement
1  CC(C)Cn1c2c(c(O)c(C(=O)Nc3ncccc3O)c1=O)CCCC2  fluorescence slope   -0.38 (inactive)
2  Cc1ccc2[nH]c(=O)c(C(c3nnnn3CCc3ccccc3)N3CCOCC3)cc2c1 (stereo unspecified)  fluorescence slope  -0.482 (inactive)
3                   Nc1nc(N)nc(-c2ccccc2)n1  fluorescence slope  -0.599 (inactive)
4          O=C(Cn1nnc(-c2cccs2)n1)OC1CCCCC1  fluorescence slope  -0.547 (inactive)
5  O=c1c2ccc(-c3nnc4n3-c3ccccc3SC4)cc2nc2n1CCCCC2  fluorescence slope  -0.414 (inactive)
6   CCCn1c(SCC(=O)NCCc2ccccc2)nnc1-c1ccccn1  fluorescence slope  -0.543 (inactive)

"CCC(=O)Oc1ccc2c(C)cc(=O)oc2c1C" has a reported fluorescence slope of -0.554 (inactive)

For this compound ( "Cn1c(CN2CCCCC2)nc2cc(NC(=O)c3ccccc3)ccc21" ), measured fluorescence slope is -0.438 (inactive)

Lookup result for "N#CC1=C(N)SC(N)=C(C#N)C1CCc1ccccc1" ; measured fluorescence slope: -0.543 (inactive)

Value of measured fluorescence slope for the entry CC(CCc1ccccc1)NC(=O)c1ccc(Br)o1 (stereo unspecified) : -0.449 (inactive)

For record COCCn1nnnc1C(c1cc2ccc(OC)cc2[nH]c1=O)N1CCc2ccccc2C1 (stereo unspecified) the listed fluorescence slope is -0.503 (inactive)
